Where do the numbers come from? From PubChem BioAssay (NCI).

Catalogue of growth values
- System: M14 melanoma
- TEST_PROTOCOL: NCI-60 one-dose screen, 48 h (100 = growth as untreated, 0 = no growth, -100 = all killed)
- MEASUREMENT_CONDITIONS: 10 µM unless noted
- Procedure: Growth inhibition of the M14 human tumor cell line is measured as a screen for anti-cancer activity. Cells are grown in 96 well plates and exposed to the test compound for 48 hours. Compounds are tested at a single concentration, which is 10^-5 M for most compounds. The reported endpoint is percent growth (GI% or GIPRCNT), where numbers from 0 - 100% represent growth inhibition, and numbers from -100% - 0 represent cell death. For example, a value of 40 represents 60% growth inhibition. […]
Compounds without any hit were thinned out: in the full panel of roughly 83,000, 20% have a hit.
Express the result in % but write the number alone.

Known growth results, listed for orientation:
{"SMILES_CODE": "COC(=O)/C=C/c1cc(OC)c2c(c1)[C@@H](C(=O)OC)[C@H](c1ccc(OC)c(OC)c1)O2", "SYSTEM_TESTED": "M14 melanoma", "MEASURED_METRIC": "growth", "OBSERVED": 2.02}
{"SMILES_CODE": "C=C1C(=O)O[C@H]2[C@H]1CC/C(COC(=O)CCCCCCCC(=O)OC/C1=C/CC[C@@]3(C)O[C@H]3[C@H]3OC(=O)C(=C)[C@@H]3CC1)=C\\CC[C@@]1(C)O[C@@H]21", "SYSTEM_TESTED": "M14 melanoma", "MEASURED_METRIC": "growth", "OBSERVED": 8.2}
{"SMILES_CODE": "CCOC(=O)c1sc(/N=C2\\NC(=O)/C(=C/c3ccc(N4CCN(C)CC4)cc3)S2)nc1C", "SYSTEM_TESTED": "M14 melanoma", "MEASURED_METRIC": "growth", "OBSERVED": 108}

In the following, a different compound is considered.
If you can, please state the reported growth value of CCOC(=O)/C(=C/c1c(-c2ccccc2)[nH]c2ccccc12)C(=O)c1ccc(Cl)cc1 . 39.5
